Target: T1, human DLL4, full length, on cells (human, UniProt Q9NR61 27-685)
T1 construct: also called huDLL4 cells; human DLL4-293G
T1 sequence (Q9NR61 27-685 limits assumed): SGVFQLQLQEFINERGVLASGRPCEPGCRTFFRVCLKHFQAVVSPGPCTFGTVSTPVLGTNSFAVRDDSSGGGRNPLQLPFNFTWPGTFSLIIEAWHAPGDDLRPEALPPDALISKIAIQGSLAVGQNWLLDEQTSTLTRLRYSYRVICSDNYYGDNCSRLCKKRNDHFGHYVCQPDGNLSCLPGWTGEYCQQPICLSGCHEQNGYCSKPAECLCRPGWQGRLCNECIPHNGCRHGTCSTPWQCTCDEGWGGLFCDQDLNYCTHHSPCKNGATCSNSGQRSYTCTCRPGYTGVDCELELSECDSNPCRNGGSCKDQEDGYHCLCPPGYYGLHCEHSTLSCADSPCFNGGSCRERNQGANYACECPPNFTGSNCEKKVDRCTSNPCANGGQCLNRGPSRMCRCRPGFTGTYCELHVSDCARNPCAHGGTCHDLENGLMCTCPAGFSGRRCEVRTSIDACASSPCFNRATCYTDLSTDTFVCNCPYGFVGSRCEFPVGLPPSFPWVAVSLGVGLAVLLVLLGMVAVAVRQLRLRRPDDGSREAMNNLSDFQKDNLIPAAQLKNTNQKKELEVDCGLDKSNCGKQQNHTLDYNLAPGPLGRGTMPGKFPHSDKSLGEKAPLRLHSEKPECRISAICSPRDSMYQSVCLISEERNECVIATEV
Experiment: FACS, DLL4 cells
Below is a list of entries, each paired with its recorded pEC50 value.
Scale note: pEC50 = -log10(concentration in M).

• h38H12.5 (antibody, V domains shown, humanized IgG; also called VH.1a/VL.1 38H12) VH: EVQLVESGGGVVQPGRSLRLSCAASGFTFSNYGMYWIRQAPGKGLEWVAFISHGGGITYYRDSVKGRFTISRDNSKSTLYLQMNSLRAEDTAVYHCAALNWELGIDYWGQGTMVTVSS VL: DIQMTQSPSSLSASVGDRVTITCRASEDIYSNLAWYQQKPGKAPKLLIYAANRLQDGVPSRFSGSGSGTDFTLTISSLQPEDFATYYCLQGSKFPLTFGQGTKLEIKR = 7.11

Just so you know, measured pEC50 for h38H12.11 (antibody, V domains shown, humanized IgG; also called VH.1b/VL.1b 38H12) VH: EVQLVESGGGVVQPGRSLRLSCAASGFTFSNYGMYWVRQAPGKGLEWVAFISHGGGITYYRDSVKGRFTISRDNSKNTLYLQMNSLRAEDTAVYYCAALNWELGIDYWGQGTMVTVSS VL: DIQMTQSPSSLSASVGDRVTITCRASEDIYSNLAWYQQKPGKAPKLLIYAANRLQDGVPSRFSGSGSGTDYTLTISSLQPEDFATYYCLQGSKFPLTFGQGTKLEIKR came out at 8.61

Just so you know, measured pEC50 for h38H12.16 (antibody, V domains shown, humanized IgG; also called VH.2a/VL.2a 38H12) VH: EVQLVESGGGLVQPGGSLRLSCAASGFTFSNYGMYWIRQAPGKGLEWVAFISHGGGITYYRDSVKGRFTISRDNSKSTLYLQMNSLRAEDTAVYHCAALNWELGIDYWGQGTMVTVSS VL: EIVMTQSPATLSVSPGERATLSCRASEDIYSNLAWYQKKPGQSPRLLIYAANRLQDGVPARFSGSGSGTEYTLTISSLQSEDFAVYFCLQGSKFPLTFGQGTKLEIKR came out at 8.54
